# Tested System: recombinant human SK (Homo sapiens)
# Construct: GST (glutathione-S-transferase) (N); made in house; host or cells: bacteria (pGEX bacterial expression vector)
# Sequence (Q9NYA1 whole entry): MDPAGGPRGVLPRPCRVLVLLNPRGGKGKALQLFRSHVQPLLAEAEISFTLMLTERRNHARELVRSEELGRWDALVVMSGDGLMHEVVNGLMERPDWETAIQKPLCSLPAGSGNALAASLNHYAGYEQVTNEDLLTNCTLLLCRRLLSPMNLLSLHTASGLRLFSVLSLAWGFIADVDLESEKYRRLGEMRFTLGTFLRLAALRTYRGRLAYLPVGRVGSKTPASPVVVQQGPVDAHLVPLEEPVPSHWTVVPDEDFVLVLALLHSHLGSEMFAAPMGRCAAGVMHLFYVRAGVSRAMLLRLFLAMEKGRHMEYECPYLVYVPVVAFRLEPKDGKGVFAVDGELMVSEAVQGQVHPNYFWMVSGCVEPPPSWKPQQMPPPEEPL
# Experiment Summary: Recombinant human SK activity assay ([3H]sphingosine to [3H]S1P)
# Type: biochemical
# Condition Label: Human SK incubated with 6 μg/mL of compound; percentage of SK activity inhibited
Collected inhibition at 6 µg/mL values appear next to each entry.
Write down the numeric answer in % and omit the unit.

Known results for molecules:
- CC(=O)Oc1ccc(NC(=O)C23CC4CC(C2)CC(c2ccc(Cl)cc2)(C4)C3)cc1 [A7]: 100
- O=C(Nc1ccccc1)C12CC3CC(C1)CC(c1ccc(Cl)cc1)(C3)C2 [A4]: 44
- O=C(Nc1nnn[nH]1)C12CC3CC(C1)CC(c1ccc(Cl)cc1)(C3)C2 [A67]: 10

Measured inhibition at 6 µg/mL for this entry O=C(NCc1ccc(-c2ccccc2)cc1)C12CC3CC(C1)CC(c1ccc(Cl)cc1)(C3)C2 [A49] on recombinant human SK (Homo sapiens): 33

Measured inhibition at 6 µg/mL for this entry CC(NC(=O)Nc1ccc(Cl)c(C(F)(F)F)c1)C12CC3CC(CC(c4ccc(Cl)cc4)(C3)C1)C2 (stereo not drawn) [A118] on recombinant human SK (Homo sapiens): 77

Measured inhibition at 6 µg/mL for this entry O=C(Nc1nc(-c2ccc(Cl)cc2)cs1)C12CC3CC(CC(C3)C1)C2 [A69] on recombinant human SK (Homo sapiens): 40

* * *

# Tested on: endogenous SK activity in MDA-MB-231 cells
# Experiment Summary: Cellular S1P production (endogenous SK activity) in MDA-MB-231 cells
# Format: cell-based
# Condition Label: Homo sapiens; MDA-MB-231 cells, varying concentrations; concentration inhibiting S1P production by 50%
Quantity: pIC50
Note: pIC50 values are expressed as the negative base-10 logarithm of concentration in M.

Known results for molecules:
• O=C(Nc1nc2cc(Cl)ccc2o1)c1ccccc1[N+](=O)[O-] = 4.66
• CN1CCN(NCC23CC4CC(C2)CC(c2ccc(Cl)cc2)(C4)C3)CC1 = 4.80

Measured pIC50 for this entry O=C(NCc1ccncc1)C12CC3CC(C1)CC(c1ccc(Cl)cc1)(C3)C2 on endogenous SK activity in MDA-MB-231 cells: 4.59

Measured pIC50 for this entry O=C(NCCc1ccncc1)C12CC3CC(C1)CC(c1ccc(Cl)cc1)(C3)C2 on endogenous SK activity in MDA-MB-231 cells: 4.20

* * *

# Tested System: recombinant human SK (Homo sapiens)
# Construct: GST (glutathione-S-transferase) (N); made in house; host or cells: bacteria (pGEX bacterial expression vector)
# Experiment Summary: Recombinant human SK activity assay ([3H]sphingosine to [3H]S1P)
# Format: biochemical
# Condition Label: Human SK incubated with 6 μg/mL of compound; percentage of SK activity inhibited
Quantity: Recombinant SK (% inhibition)

Known results for molecules:
- O=C(NCc1ccc(Oc2ccccc2)cc1)C12CC3CC(C1)CC(c1ccc(Cl)cc1)(C3)C2 [A34]: 0%
- O=C(NCc1ccncc1)C12CC3CC(CC(C3)C1)C2 [A63]: 0%
- CCn1c2ccccc2c2cc(NCC34CC5CC(C3)CC(c3ccc(Cl)cc3)(C5)C4)ccc21 [A89]: 37%
- O=C(NCCCN1CCCC1)c1nc(-c2ccc(Cl)cc2)cs1 [B59]: 46%
- O=C(NCc1ccc(Oc2ccccc2)cc1)C12CC3CC(C1)CC(c1ccc(Cl)cc1)(C3)C2 [A41]: 67%

CCCCCCCCCCCCCCCC(=O)Nc1nc(-c2ccc(Cl)cc2)cs1 [B3] yielded Recombinant SK (% inhibition) of 88%
